pest or weed control at 1000 g/ha reference
Tested on: Echinochloa crus-galli (ECHCG)
TEST: Pre-emergence biological efficacy (percentage damage)
Format: in vivo
MEASUREMENT_PARAMETERS: Echinochloa crus-galli, 312 h, dose 1,000 g/ha, evaluated after 13 days, 100=total damage, 0=no damage
Report as a plain number; the unit % is understood.

Entry C=C(C)c1c(N)nc(-c2ccc(C(F)(F)F)cc2)nc1C(=O)OC — recorded pest or weed control at 1000 g/ha = 0

Per the record, C=Cc1c(N)nc(-c2ccc3c(c2)OCCO3)nc1C(=O)OC has pest or weed control at 1000 g/ha of 20

Summary for this compound, C=Cc1c(N)nc(-c2ccc3c(c2)OCO3)nc1C(=O)OC : pest or weed control at 1000 g/ha is 90

----------
System: Echinochloa crus-galli (ECHCG)
TEST: Pre-emergence biological efficacy (percentage damage)
Format: in vivo
MEASUREMENT_PARAMETERS: Echinochloa crus-galli, 312 h, dose 1,000 g/ha, evaluated after 13 days, 100=total damage, 0=no damage
Entries and their pest or weed control at 1000 g/ha values follow.
Param answer (str): number followed by unit.

See these solved cases before continuing.
COMPOUND | ENDPOINT_VALUE
C=Cc1c(N)nc(-c2ccc(Cl)c(N(C)C)c2F)nc1C(=O)OC [Compound 33-61] | 0%
C=C(C)c1c(N)nc(-c2ccc(Cl)c(N(C)C)c2F)nc1C(=O)OC [Compound 33-64] | 0%
C=Cc1c(N)nc(-c2ccc(Cl)c(N(C)C)c2F)nc1C(=O)OCC(CC)CCCC (stereo not shown) [Compound 33-393] | 0%

Entry COC(=O)c1nc(-c2ccc(C)c(OC)c2F)nc(N)c1C [Compound 60-41] ; assay system Echinochloa crus-galli (ECHCG); pest or weed control at 1000 g/ha recorded at 10%

----------
Test system: Setaria faberi (SETFA)
TEST: Post-emergence biological efficacy (percentage damage)
Assay type: in vivo
MEASUREMENT_PARAMETERS: Setaria faberi, 312 h, dose 1,000 g/ha, evaluated after 13 days, 100=total damage, 0=no damage
Experimental: Seeds of Alopecurus myosuroides (ALOMY), Setaria faberi (SETFA), Echinochloa crus-galli (ECHCG), Solanum nigrum (SOLNI), Amaranthus retoflexus (AMARE) and Ipomea hederaceae (IPOHE) were sown in standard soil in pots. […] After 13 days the test was evaluated (100=total damage to plant; 0=no damage to plant).
PARAMETER: pest or weed control at 1000 g/ha (%)
Number in %, nothing else.

These recorded examples may help you get a feel for the data.
MOLECULE | PARAMETER | ENDPOINT_VALUE
COC(=O)c1nc(-c2ccc(Cl)c(OC)c2F)nc(N)c1C(C)=O | pest or weed control at 1000 g/ha | 40
C=Cc1c(N)nc(-c2ccc(Cl)c(N(C)C)c2F)nc1C(=O)OC(C)c1ccccc1 (centres unmarked) | pest or weed control at 1000 g/ha | 50
COC(=O)c1nc(-c2ccc(C(C)=O)c(OC)c2F)nc(N)c1C(C)=O | pest or weed control at 1000 g/ha | 10
C=Cc1c(N)nc(-c2ccc(Cl)c(N(C)C)c2F)nc1C(=O)OCc1ccccc1 | pest or weed control at 1000 g/ha | 90
C=Cc1c(N)nc(-c2ccc(Cl)c(N(C)C)c2F)nc1C(=O)O | pest or weed control at 1000 g/ha | 100
C=Cc1c(N)nc(-c2ccc(Cl)c(N(C)C)c2F)nc1C(=O)OCCCC | pest or weed control at 1000 g/ha | 90

Notebook: C=Cc1c(OC)nc(C2CC2)nc1C(=O)OC , pest or weed control at 1000 g/ha read as 0

Lab note: C=Cc1c(C(=O)OC)nc(C2CC2)nc1N(C)C gave pest or weed control at 1000 g/ha of 0

// pest or weed control at 1000 g/ha value for C=Cc1c(N)nc(-c2ccc(Cl)c(N(C)C)c2F)nc1C(=O)OCCOCC : 90

Record summary for C=Cc1c(N)nc(-c2ccc(C(=O)OC)cc2)nc1C(=O)OC : reported pest or weed control at 1000 g/ha = 0

Given item C=Cc1c(N)nc(-c2ccc(Cl)c(C(F)(F)F)c2)nc1C(=O)OC , the value recorded as its pest or weed control at 1000 g/ha is 0
